System: OVCAR-5 ovarian
Assay: NCI tumour cell line growth inhibition, 48 h
measurement label: TGI

// query What does the data say about its TGI? Entry: CCOC(=O)c1ccc(C(=O)/C(C(C)=O)=C2\CCCN2C)n1C
// result > 100 µM

// query What does the data say about its TGI? Entry: Cc1cc(N(CCNc2ccnc3cc(Cl)ccc23)Cc2ccco2)nc(Cl)n1
// result 3.23 µM

// query What does the data say about its TGI? Entry: c1csc(-c2cc(-c3cccs3)c(-c3cccs3)s2)c1
// result > 100 µM

// query What does the data say about its TGI? Entry: CN1CCN(c2ccc3nc(-c4ccc5nc(-c6ccc(OCCC(C)(C)C)cc6)[nH]c5c4)[nH]c3c2)CC1
// result 9.96 µM

// query What does the data say about its TGI? Entry: COc1cc(C2C(C(=O)O)=C(COC(C)=O)Oc3cc4c(cc32)OCO4)cc(OC)c1OC (stereo unspecified)
// result > 100 µM

// query What does the data say about its TGI? Entry: Clc1ccc(C2SCc3nc4ccccc4n32)cc1Cl (stereo unspecified)
// result 22.8 µM
